ASSAYED SYSTEM: Chymotrypsinogen A (Bos taurus) (UniProt P00766)
ASSAY METHOD TEXT: Inhibitory activity against Bovine pancreas alpha-chymotrypsin at 10 uM
Square brackets hold non-standard residues; d marks the D form. Peptide text beside a SMILES is read from it. * marks the point of attachment. d2Thi = N[C@H](Cc1cccs1)C(=O)O; Bn = c1ccc(C*)cc1; Ms = CS(=O)(=O)*
Label 1 when inhibition is at or above 10%; anything below gets 0.

# MOLECULE, LABEL
data = [
    ("CS(=O)(=O)N[C@H](CSCc1ccccc1)C(=O)N[C@H](C=O)Cc1ccccc1 (Ms-[dC](Bn)-Phe-aldehyde)", 1),
    ("CC(OCc1ccccc1)[C@@H](NS(C)(=O)=O)C(=O)N[C@H](C=O)Cc1ccccc1 (stereo partly drawn)", 0),
    ("CS(=O)(=O)N[C@H](Cc1cccs1)C(=O)N[C@H](C=O)Cc1ccccc1 (Ms-[d2Thi]-Phe-aldehyde)", 0),
    ("CCS(=O)(=O)N[C@H](COCc1ccccc1)C(=O)N[C@H](C=O)Cc1ccccc1", 1),
    ("CS(=O)(=O)N[C@H](COCc1ccccc1)C(=O)N[C@H](C=O)CCCCNS(=O)(=O)c1ccccc1", 1),
    ("CS(=O)(=O)N[C@H](COCc1ccccc1)C(=O)N[C@H](C=O)Cc1ccccc1", 1),
    ("CS(=O)(=O)N[C@H](COCc1ccccc1)C(=O)N[C@H](C=O)Cc1ccc(OCc2ccccc2)cc1 (Ms-[dS](Bn)-Tyr(Bn)-aldehyde)", 0),
    ("CS(=O)(=O)N[C@H](Cc1ccccc1)C(=O)N[C@H](C=O)Cc1ccccc1 (Ms-[dF]-Phe-aldehyde)", 1),
]

###

ASSAYED SYSTEM: Calpain-1 catalytic subunit (Homo sapiens, UniProt P07384)
ASSAY METHOD TEXT: Inhibitory activity against recombinant human Calpain-I receptor
Square brackets hold non-standard residues; d marks the D form. Peptide text beside a SMILES is read from it. * marks the point of attachment. Abu = CC[C@H](N)C(=O)O; Bn = c1ccc(C*)cc1; Ms = CS(=O)(=O)*
PARAMETER: Ki (nM)

# COMPOUND, PARAMETER, DATA VALUE
data = [
    ("CCNC(=O)C(=O)[C@H](Cc1ccccc1)NC(=O)[C@@H](COCc1ccccc1)NS(C)(=O)=O", "Ki", 130),
    ("CC[C@@H](C=O)NC(=O)[C@@H](COCc1ccccc1)NS(C)(=O)=O (Ms-[dS](Bn)-[Abu]-aldehyde)", "Ki", 36),
    ("CS(=O)(=O)N[C@H](Cc1c[nH]c2ccccc12)C(=O)N[C@H](C=O)Cc1ccccc1 (Ms-[dW]-Phe-aldehyde)", "Ki", 10),
    ("O=C[C@H](Cc1ccccc1)NC(=O)[C@@H](COCc1ccccc1)NS(=O)(=O)c1ccccc1", "Ki", 22),
]

###

ASSAYED SYSTEM: Calpain-1 catalytic subunit (Homo sapiens)
Sequence (P07384 whole entry): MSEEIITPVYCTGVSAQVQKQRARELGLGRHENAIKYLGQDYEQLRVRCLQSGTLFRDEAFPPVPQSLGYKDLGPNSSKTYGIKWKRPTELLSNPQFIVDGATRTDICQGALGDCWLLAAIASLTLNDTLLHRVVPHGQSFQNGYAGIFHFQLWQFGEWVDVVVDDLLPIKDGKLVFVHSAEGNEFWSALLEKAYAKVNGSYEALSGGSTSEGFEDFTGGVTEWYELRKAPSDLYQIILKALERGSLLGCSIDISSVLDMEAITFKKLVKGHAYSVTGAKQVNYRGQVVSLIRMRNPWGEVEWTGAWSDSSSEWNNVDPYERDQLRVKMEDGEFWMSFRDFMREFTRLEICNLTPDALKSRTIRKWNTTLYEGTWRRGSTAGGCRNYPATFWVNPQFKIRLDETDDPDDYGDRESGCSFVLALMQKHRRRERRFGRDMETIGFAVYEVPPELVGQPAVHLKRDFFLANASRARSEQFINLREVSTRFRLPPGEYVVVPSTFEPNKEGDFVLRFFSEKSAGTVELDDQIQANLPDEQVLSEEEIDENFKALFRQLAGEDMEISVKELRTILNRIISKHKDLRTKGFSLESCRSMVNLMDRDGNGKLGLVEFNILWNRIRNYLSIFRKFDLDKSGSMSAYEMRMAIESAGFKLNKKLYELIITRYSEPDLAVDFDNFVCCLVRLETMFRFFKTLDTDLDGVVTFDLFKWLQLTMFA
ASSAY METHOD TEXT: Inhibitory activity against recombinant human Calpain-I receptor
Square brackets hold non-standard residues; d marks the D form. Peptide text beside a SMILES is read from it. * marks the point of attachment. d(hPhe) = N[C@H](CCc1ccccc1)C(=O)O; d2Thi = N[C@H](Cc1cccs1)C(=O)O; Bn = c1ccc(C*)cc1; Ms = CS(=O)(=O)*
Could you please mark Yes for values of Ki below 9 nM and No for values at or above it?

# COMPOUND, LABEL
measured = [
    ("CS(=O)(=O)N[C@H](CCc1ccccc1)C(=O)N[C@H](C=O)Cc1ccccc1 (Ms-[d(hPhe)]-Phe-aldehyde)", "No"),
    ("CS(=O)(=O)N[C@H](COCc1ccccc1)C(=O)N[C@H](C=O)Cc1ccc(OCc2ccccc2)cc1 (Ms-[dS](Bn)-Tyr(Bn)-aldehyde)", "Yes"),
    ("CS(=O)(=O)N[C@H](Cc1ccccc1)C(=O)N[C@H](C=O)Cc1ccccc1 (Ms-[dF]-Phe-aldehyde)", "No"),
    ("CS(=O)(=O)N[C@H](CS(=O)(=O)Cc1ccccc1)C(=O)N[C@H](C=O)Cc1ccccc1", "No"),
    ("CC(C)C[C@@H](C=O)NC(=O)[C@@H](COCc1ccccc1)NS(C)(=O)=O (Ms-[dS](Bn)-Leu-aldehyde)", "No"),
    ("CS(=O)(=O)N[C@H](Cc1cccs1)C(=O)N[C@H](C=O)Cc1ccccc1 (Ms-[d2Thi]-Phe-aldehyde)", "No"),
    ("CC(C)C[C@@H](NS(C)(=O)=O)C(=O)N[C@H](C=O)Cc1ccccc1 (Ms-[dL]-Phe-aldehyde)", "No"),
    ("CS(=O)(=O)N[C@H](COCc1ccccc1)C(=O)N[C@H](C=O)CCCCNS(=O)(=O)c1ccccc1", "Yes"),
    ("CS(=O)(=O)N[C@H](CSCc1ccccc1)C(=O)N[C@H](C=O)Cc1ccccc1 (Ms-[dC](Bn)-Phe-aldehyde)", "Yes"),
    ("CN([C@H](COCc1ccccc1)C(=O)N[C@H](C=O)Cc1ccccc1)S(C)(=O)=O", "No"),
    ("CS(=O)(=O)NC(COCc1ccccc1)C(=O)N[C@H](C=O)Cc1ccccc1 (single isomer, unassigned)", "No"),
    ("CS(=O)(=O)N[C@H](COCc1ccccc1)C(=O)N[C@H](C=O)Cc1ccccc1", "Yes"),
]

Each recorded value in this set is attributed to ChEMBL document CHEMBL1131026.
